Please provide measured inhibition for the entries that follow.
tested on: Receptor-type tyrosine-protein kinase FLT3 (Homo sapiens), P36888 [UNDEFINED MUTATION]; assay: Inhibition of FLT3 ITD mutant (unknown origin) using TAMRA-Src- tide as substrate at 1.25 uM after 1 hr by fluorescence polarization assay relative to control
Sequence (P36888 whole entry, looked up, change not shown): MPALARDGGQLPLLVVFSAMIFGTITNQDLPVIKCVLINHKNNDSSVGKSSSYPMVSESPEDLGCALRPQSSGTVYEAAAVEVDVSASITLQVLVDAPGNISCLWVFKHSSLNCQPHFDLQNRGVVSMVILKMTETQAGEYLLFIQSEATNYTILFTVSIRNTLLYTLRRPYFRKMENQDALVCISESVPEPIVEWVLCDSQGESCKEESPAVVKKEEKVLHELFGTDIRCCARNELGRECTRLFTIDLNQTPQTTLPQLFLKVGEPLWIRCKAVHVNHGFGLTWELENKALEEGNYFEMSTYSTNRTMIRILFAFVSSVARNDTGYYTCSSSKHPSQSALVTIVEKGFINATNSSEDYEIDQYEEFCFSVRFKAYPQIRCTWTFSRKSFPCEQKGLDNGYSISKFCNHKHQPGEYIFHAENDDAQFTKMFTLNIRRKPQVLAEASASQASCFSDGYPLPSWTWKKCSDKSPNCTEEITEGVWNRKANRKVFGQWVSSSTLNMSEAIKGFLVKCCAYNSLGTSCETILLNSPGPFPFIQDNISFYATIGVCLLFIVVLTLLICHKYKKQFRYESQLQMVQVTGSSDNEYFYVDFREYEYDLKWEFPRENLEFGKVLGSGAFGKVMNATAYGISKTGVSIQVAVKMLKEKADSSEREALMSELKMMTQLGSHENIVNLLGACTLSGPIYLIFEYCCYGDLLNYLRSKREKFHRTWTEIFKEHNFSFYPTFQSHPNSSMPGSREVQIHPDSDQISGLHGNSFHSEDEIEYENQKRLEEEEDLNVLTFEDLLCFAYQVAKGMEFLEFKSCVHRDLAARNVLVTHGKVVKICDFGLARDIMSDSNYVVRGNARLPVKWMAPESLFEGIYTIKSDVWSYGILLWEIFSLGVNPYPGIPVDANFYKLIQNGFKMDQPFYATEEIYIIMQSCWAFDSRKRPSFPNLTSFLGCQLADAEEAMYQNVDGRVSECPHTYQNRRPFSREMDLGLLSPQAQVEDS
One number for each entry, in %.

Please review the entries below; each comes with its answer.
CCOC(=O)c1c(C)[nH]c(/C=C2\C(=O)Nc3ccc(C(=O)N[C@H](Cc4ccccc4)C(=O)OC)cc32)c1C: 61.3
Cc1[nH]c(/C=C2\C(=O)Nc3ccc(C(=O)N[C@H](Cc4ccccc4)C(=O)O)cc32)c(C)c1C(=O)N[C@H](Cc1ccccc1)C(=O)O: 76.8
COC(=O)CC[C@H](NC(=O)c1ccc2c(c1)/C(=C/c1[nH]c(C)c(C(=O)O)c1C)C(=O)N2)C(=O)OC: 58.7
COC(=O)[C@H](Cc1ccccc1)NC(=O)c1ccc2c(c1)/C(=C/c1[nH]c(C)c(C(=O)O)c1C)C(=O)N2: 69
COC(=O)CC[C@H](NC(=O)c1c(C)[nH]c(/C=C2\C(=O)Nc3ccc(C(=O)N[C@H](Cc4ccccc4)C(=O)OC)cc32)c1C)C(=O)OC: 35.3

Okay, here is my list. What is inhibition for each of these?
1. COC(=O)[C@@H](Cc1ccccc1)NC(=O)c1ccc2c(c1)/C(=C/c1[nH]c(C)c(C(=O)N[C@@H](Cc3ccccc3)C(=O)O)c1C)C(=O)N2
2. COC(=O)CC[C@@H](NC(=O)c1c(C)[nH]c(/C=C2\C(=O)Nc3ccc(C(=O)N[C@H](Cc4ccccc4)C(=O)OC)cc32)c1C)C(=O)OC
3. COC(=O)[C@H](Cc1ccccc1)NC(=O)c1ccc2c(c1)/C(=C/c1[nH]c(C)c(C(=O)N[C@H](Cc3ccccc3)C(=O)O)c1C)C(=O)N2
4. CCOC(=O)c1c(C)[nH]c(/C=C2\C(=O)Nc3ccc(C(=O)N[C@@H](CCC(=O)OC)C(=O)OC)cc32)c1C

1: 74.2; 2: 37.9; 3: 89.6; 4: 30.2

Okay, here is my list. What is inhibition for each of these?
1. Cc1[nH]c(/C=C2\C(=O)Nc3ccc(C(=O)O)cc32)c(C)c1C(=O)N[C@@H](Cc1ccccc1)C(=O)O
2. CCOC(=O)c1c(C)[nH]c(/C=C2\C(=O)Nc3ccc(C(=O)N[C@H](Cc4ccccc4)C(=O)O)cc32)c1C
3. COC(=O)c1ccc2c(c1)/C(=C/c1[nH]c(C)c(C(=O)N[C@@H](Cc3ccccc3)C(=O)O)c1C)C(=O)N2

100
47
90.9
